The following binders are listed with their measured Dissociation % values.
- testTarget: T1, recombinant human IL4Rα-his protein (in house made) (human, UniProt P24394 26-232, limits assumed)
- T1 construct: also called Human IL4Ra-his
- protocolSummary: SPR (Biacore), antibody captured, IL4Rα-his flowed
Just the number plus its unit, please.

Some solved entries appear below for comparison.
binder: huC2C1A1A1-V7 (antibody, human IgG4, V domains shown, Humanized, human IgG4/kappa) VH: EVQLVESGGGLVQPGGSLRLSCAASGFTFSTYGMSWVRQSPDKRLEWVSTINSNGGSTSYPDSVKGRFTISRDNAKNTLYLQMRSLRAEDTAVYYCARFFRFRNAMDYWGQGTLVTVSS VL: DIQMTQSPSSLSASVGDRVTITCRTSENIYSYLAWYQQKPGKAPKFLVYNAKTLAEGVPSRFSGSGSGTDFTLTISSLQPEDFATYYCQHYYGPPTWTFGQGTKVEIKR
recordedResult: -0.66%
--
binder: huC2C1A1A1-V4 (antibody, human IgG4 S228P, kappa, V domains shown, Humanized, human IgG4/kappa) VH: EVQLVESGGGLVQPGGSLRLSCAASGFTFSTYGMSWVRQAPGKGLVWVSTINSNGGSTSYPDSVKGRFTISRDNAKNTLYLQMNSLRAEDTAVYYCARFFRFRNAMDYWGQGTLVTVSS VL: DIQMTQSPSSLSASVGDRVTITCRTSENIYSYLAWYQQKPGKAPKFLIYNAKTLAEGVPSRFSGSGSGTDFTLTISSLQPEDFATYYCQHYYGPPTWTFGQGTKVEIKR
recordedResult: 0.2%

Q) Any idea what its Dissociation % is? The binder is huC2C1A1A1-V10 (antibody, human IgG4 S228P, kappa, V domains shown, Humanized, human IgG4/kappa) VH: EVQLVESGGGLVQPGGSLRLSCAASGFTFSTYGMSWVRQAPGKGLVLVATINSNGGSTSYPDSVKGRFTISRDNAKNTLYLQMNSLRAEDTAVYYCARFFRFRNAMDYWGQGTLVTVSS VL: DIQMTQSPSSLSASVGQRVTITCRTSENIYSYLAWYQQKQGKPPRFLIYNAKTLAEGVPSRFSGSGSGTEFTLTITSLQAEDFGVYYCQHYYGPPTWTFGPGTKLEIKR
A) -1.54%
